- Test system: UO-31 renal
- ASSAY SUMMARY: NCI-60 one-dose screen, 48 h
- ASSAY CONTEXT: 10 µM unless noted
- Experimental: Growth inhibition of the UO-31 human tumor cell line is measured as a screen for anti-cancer activity. Cells are grown in 96 well plates and exposed to the test compound for 48 hours. Compounds are tested at a single concentration, which is 10^-5 M for most compounds. The reported endpoint is percent growth (GI% or GIPRCNT), where numbers from 0 - 100% represent growth inhibition, and numbers from -100% - 0 represent cell death. For example, a value of 40 represents 60% growth inhibition. […]
The panel holds about 83,000 compounds, 20% with a hit somewhere; the sample as a whole holds those more often. Active and inactive are the calls of the source. The calls were made as follows: active = growth percent below 10; inactive = the rest.
# output must be one of true (1) for active, false (0) for inactive

Hi, do you know how Cc1c(C(=O)NO)sc2ncnc(Nc3ccc(NC(=S)Nc4ccccc4)cc3)c12 came out in this test? false (0)

----------
- Test system: HOP-92 NSCLC
- ASSAY SUMMARY: NCI-60 one-dose screen, 48 h (100 = growth as untreated, 0 = no growth, -100 = all killed)
- ASSAY CONTEXT: 10 µM unless noted
The panel holds about 83,000 compounds, 20% with a hit somewhere; the sample as a whole holds those more often.
# label = 1.0 if growth >= 90% else 0.0

Consider the worked cases shown below.
COc1ccc(-c2nc(N/N=C/c3c[nH]c4ccccc34)nc(N3CCOCC3)c2C#N)cc1; 0.0
CC1NC(=S)NC(=O)/C1=C/c1cc(=O)oc2c1ccc1ccccc12 (stereo not given); 0.0
Cc1ccc(-c2c(Br)c(OC(=O)CO[C@@H]3C[C@H](C)CC[C@H]3C(C)C)c(-c3ccc(C)cc3C)c(Br)c2OC(=O)CO[C@H]2C[C@@H](C)CC[C@@H]2C(C)C)c(C)c1; 1.0
O=S(=O)(NCCCNc1nccc(-c2c(-c3cccc(O)c3)nc3occn23)n1)c1ccc(Br)cc1; 1.0
OC(c1ccccc1)c1ccccn1 (stereo not given); 1.0
CC(C)(C)CC(C)(C)Nc1c(-c2ccc3c(c2)OCO3)nc2cnccn12; 0.0
Fc1ccc(C2CC(c3cccc(Nc4ccncc4)c3)=NN2c2ccccc2)cc1 (stereo not given); 0.0
c1ccc(CCSc2ncnc3nc[nH]c23)cc1; 1.0
O=C(CSc1nc2sc3c(c2c(=O)n1Cc1ccccc1)CCCC3)N1CCN(c2ccccc2)CC1; 1.0

Entry COc1cc2nc(Cc3ccc(C)cc3)[nH]c(=O)c2cc1OC : is its growth no less than 90%? 0.0

----------
Reported growth values for the following compounds.
- Tested on: NCI-H23 lung
- ASSAY SUMMARY: NCI-60 one-dose screen, 48 h (100 = growth as untreated, 0 = no growth, -100 = all killed)
- ASSAY CONTEXT: 10 µM unless noted
This is part of a sample that, as a whole, favours compounds with a hit. Of some 83,000 tested, about 20% had one in any assay. Activity calls are given as the source filed them. How the source made its calls: active means growth percent below 10; inactive means the rest.

CNC(=O)NCC1OC(n2cnc3c(NC(=O)Nc4ccccc4)ncnc32)C(O[Si](C)(C)C(C)(C)C)C1O[Si](C)(C)C(C)(C)C (centres undefined); 36.3% (inactive)
COc1ccc(Cl)cc1NC(=O)c1c(NC(=O)C(F)(F)C(F)(F)F)sc2c1CCCCC2; -5.14% (active)
Nc1nnc(C(=O)c2cnc3n(c2=O)CCCCC3)s1; 96.7% (inactive)
CCCCCCCCCCCCCCCC(=O)OC[C@@]1(O)C[C@@]23CC[C@@H]4C(C)(C)[C@H](O)CC[C@@]4(C)[C@@H]2CC[C@H]1C3; 98% (inactive)

# returns recorded growth (system: NCI-H23 lung) for COc1cc(C2NC(c3cc(OC)c(OC)c(OC)c3)C(C#N)(C#N)C2(C#N)C#N)cc(OC)c1OC (centres undefined) 101% (inactive)

Subsequent entry: COc1ccc(-c2ncc(-c3ccccc3)[nH]2)cc1OC 101% (inactive)

Subsequent entry: Cc1cc(C)c(C=O)c(C)c1 101% (inactive)

Subsequent entry: CN(C)C(=O)c1cc2cnc(Nc3ccc(-c4csc5c(=O)cc(N6CCOCC6)oc45)cc3)nc2n1C1CCCC1 -10.2% (active)

Subsequent entry: COc1cc(COC(=O)CCCCC[P+](c2ccccc2)(c2ccccc2)c2ccccc2)c(OC)c2c1OCO2 51.9% (inactive)

----------
- System: OVCAR-4 ovarian
- ASSAY SUMMARY: NCI-60 one-dose screen, 48 h
- ASSAY CONTEXT: 10 µM unless noted
The panel holds about 83,000 compounds, 20% with a hit somewhere; the sample as a whole holds those more often. The source made the active and inactive calls. How the source made its calls: active means growth percent below 10; inactive means the rest.
# output must be one of active, inactive

Consider the worked cases shown below.
OC(c1ccccc1)c1ccccn1 (centres undefined); inactive
CN1CCN(c2ccc3nc(-c4cc(C(C)(C)C)c(O)c(C(C)(C)C)c4)[nH]c3c2)CC1; inactive
CNC(=O)NCC1OC(n2cnc3c(NC(=O)Nc4ccccc4)ncnc32)C(O[Si](C)(C)C(C)(C)C)C1O[Si](C)(C)C(C)(C)C (centres undefined); inactive

Hi, do you know how O=C(/C=C\c1ccc(OCCCCCC[P+](c2ccccc2)(c2ccccc2)c2ccccc2)cc1)c1ccc2c(c1)OCCO2 came out in this test? active

Subsequent entry: COc1cc(C2CC(c3cccc(Nc4ccncc4)c3)=NN2c2ccccc2)cc(OC)c1OC (centres undefined) inactive

Subsequent entry: O=C(CSc1nc2sc3c(c2c(=O)n1Cc1ccccc1)CCCC3)N1CCN(c2ccccc2)CC1 inactive

Subsequent entry: CCn1ccnc1C(=O)/C=C/c1ccc(CC(=O)Nc2ccc(F)cc2)cc1 inactive

Subsequent entry: O=C1c2ccccc2-c2c1c1c(NCCCO)nc3ccccc3c1n2Cc1ccccc1 inactive

Subsequent entry: COc1cc(NCCCN(CC(C)C)C2CCCC2)c2ncccc2c1 inactive

----------
- Test system: BT-549 breast
- ASSAY SUMMARY: NCI-60 one-dose screen, 48 h (100 = growth as untreated, 0 = no growth, -100 = all killed)
- ASSAY CONTEXT: 10 µM unless noted
The panel holds about 83,000 compounds, 20% with a hit somewhere; the sample as a whole holds those more often.
Reported growth values for the following molecules.
Please state the figure in %; there is no need to write the unit.

O=C1CCCCCCCCC(O)C(O)CCCC(c2cccs2)O1 (centres undefined); 122

# growth lookup, item CCCCN(CCCC)CCc1c(C)cc(C)c(CCN(CCCC)CCCC)c1O 43.3

Subsequent entry: O=C1CCCN1c1cccc2cccnc12 109

----------
Reported growth values for the following compounds.
- Tested on: IGROV1 ovarian
- ASSAY SUMMARY: NCI-60 one-dose screen, 48 h (100 = growth as untreated, 0 = no growth, -100 = all killed)
- ASSAY CONTEXT: 10 µM unless noted
Compounds without any hit were thinned out: in the full panel of roughly 83,000, 20% have a hit. Calls of active or inactive are those of the source. How the source made its calls: active means growth percent below 10; inactive means the rest.

Some entries whose results are on file:
CC(=O)c1cc2c(N)c(C(=O)Nc3cncc4ccccc34)sc2nc1C; 104% (inactive)
Cc1ccccc1CNc1ccc(N2CCOCC2)cc1; 108% (inactive)
C[C@]12CCc3nc(Nc4cccc(O)c4)sc3C1=CC[C@@H]1[C@@H]2CC[C@]2(C)/C(=N\NC(N)=S)CC[C@@H]12; -35.5% (active)

# growth lookup, item COC(=O)N[C@H]1CCc2cc(OC)c(OC)c(OC)c2-c2ccc(SC)c(=O)cc21 19.9% (inactive)

Subsequent entry: c1ccc(C2CC(c3cccc(Nc4ccncc4)c3)=NN2c2ccccc2)cc1 (centres undefined) 62.6% (inactive)

----------
- System: A498 renal
- ASSAY SUMMARY: NCI-60 one-dose screen, 48 h
- ASSAY CONTEXT: 10 µM unless noted
This is part of a sample that, as a whole, favours compounds with a hit. Of some 83,000 tested, about 20% had one in any assay. Activity calls are given as the source filed them. Rule for the calls: active = growth percent below 10; inactive = the rest.
# output must be one of active, inactive

Consider the worked cases shown below.
ClCC1(Cn2cnc3c(Cl)nc(Cl)nc32)COC1; inactive
O=C(Nc1sc2c(c1C(=O)O)CCCC2)c1cccc(C(F)(F)F)c1; inactive
Fc1ccc(C2CC(c3cccc(Nc4ccncc4)c3)=NN2c2ccc(Cl)cc2)cc1 (configuration not stated); inactive
O=S(=O)(NCCNc1nccc(-c2c(-c3ccc(F)c(O)c3)nc3occn23)n1)c1ccccc1; inactive
COc1ccc(/C=C(/c2ccccc2)[N+](=O)[O-])cc1; inactive

Hi, do you know how COc1ccncc1C#Cc1cncc(C(=O)Nc2ccc(CN3CCN(C)CC3)c(C(F)(F)F)c2)c1 came out in this test? inactive

Subsequent entry: COc1ccc(NC(=O)c2sc3nc(C)c(C(O)c4ccc(OC)cc4)cc3c2N)cc1 (configuration not stated) inactive

Subsequent entry: COc1cc(OC)cc(C2C3=C(COC3=O)Nc3cc(OC)ccc32)c1 (configuration not stated) active

Subsequent entry: COc1ccc(NC(=O)c2sc3nc(C)c(C(=O)CCc4cccc(OC)c4)cc3c2N)cc1 inactive

Subsequent entry: COc1ccc2c(/C=C3/C(=O)NC(=S)NC3C)cc(=O)oc2c1 (configuration not stated) inactive

Subsequent entry: O=C(N/N=C/c1cccc(O)c1)c1ccccc1Nc1cccc(C(F)(F)F)c1 inactive

Subsequent entry: COc1ccc(-c2cnc(N)nc2-c2ccc(OC)cc2O)cc1 inactive

Subsequent entry: COc1cc(C2CC(c3cccc(Nc4ccncc4)c3)=NN2c2ccc(Cl)cc2)cc(OC)c1OC (configuration not stated) inactive

Subsequent entry: N/C(=N\N=C\c1cc2ccccc2s1)N/N=C/c1cc2ccccc2s1 inactive

Subsequent entry: CC(=O)N1N=C(c2cccc(Nc3ccncc3)c2)CC1c1ccc2c(c1)OCO2 (configuration not stated) inactive

Subsequent entry: CN(C)CCCn1c2c(c3ccc(-c4ccn[nH]4)cc3c1=O)C(=O)c1ccccc1-2 inactive
